# target entity: Ba/F3 L858R/T790M/C797S EGFR triple mutant cell line (Homo sapiens, UniProt P00533, T790M/C797S/L858R, cells depend on it)
# Sequence (P00533 whole entry T790M/C797S/L858R): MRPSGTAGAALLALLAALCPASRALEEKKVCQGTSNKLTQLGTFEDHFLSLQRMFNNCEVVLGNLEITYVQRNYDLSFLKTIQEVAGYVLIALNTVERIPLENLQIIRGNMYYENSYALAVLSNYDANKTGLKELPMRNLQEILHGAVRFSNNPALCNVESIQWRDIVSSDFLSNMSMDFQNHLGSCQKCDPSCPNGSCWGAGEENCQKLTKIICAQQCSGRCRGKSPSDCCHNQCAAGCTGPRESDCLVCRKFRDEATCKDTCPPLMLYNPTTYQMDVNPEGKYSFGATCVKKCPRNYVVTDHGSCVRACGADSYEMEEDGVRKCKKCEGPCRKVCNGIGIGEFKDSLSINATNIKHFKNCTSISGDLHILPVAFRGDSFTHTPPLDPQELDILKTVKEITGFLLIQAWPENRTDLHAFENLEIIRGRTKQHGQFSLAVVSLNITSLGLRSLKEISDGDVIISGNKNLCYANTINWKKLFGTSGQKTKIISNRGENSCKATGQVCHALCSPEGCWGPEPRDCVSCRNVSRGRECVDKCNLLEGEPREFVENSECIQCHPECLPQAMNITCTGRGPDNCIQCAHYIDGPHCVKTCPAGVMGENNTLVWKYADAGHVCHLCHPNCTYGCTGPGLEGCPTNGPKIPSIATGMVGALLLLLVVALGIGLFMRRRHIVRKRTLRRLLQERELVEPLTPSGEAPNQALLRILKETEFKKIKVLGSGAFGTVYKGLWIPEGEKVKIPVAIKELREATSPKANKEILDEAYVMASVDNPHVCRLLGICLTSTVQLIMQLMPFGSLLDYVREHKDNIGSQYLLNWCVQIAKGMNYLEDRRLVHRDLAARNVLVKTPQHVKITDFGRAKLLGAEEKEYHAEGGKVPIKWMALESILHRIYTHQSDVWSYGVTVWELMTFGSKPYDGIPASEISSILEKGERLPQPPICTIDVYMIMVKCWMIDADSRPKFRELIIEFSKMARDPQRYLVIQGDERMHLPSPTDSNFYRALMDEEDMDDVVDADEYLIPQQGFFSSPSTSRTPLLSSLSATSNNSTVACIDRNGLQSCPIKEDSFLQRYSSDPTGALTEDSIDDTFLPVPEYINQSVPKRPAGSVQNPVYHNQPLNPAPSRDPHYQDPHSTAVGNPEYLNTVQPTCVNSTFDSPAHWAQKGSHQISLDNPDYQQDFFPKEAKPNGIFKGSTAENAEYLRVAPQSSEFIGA
# assay explanation: Cell proliferation inhibition experiment (CellTiter-Glo), Ba/F3 L858R/T790M/C797S
# Assay type: cell-based
# conditions used: 72 hours, Cell Titer-Glo, read-out: Ba/F3 (L858R/T790M/C797S) IC50
# log10(GI50) per record follows
value kind: log10(GI50) (log10 of the value in nM)

{"compound": "COc1cc(N2CCS(=O)(=O)CC2)c(-c2cnn(C)c2)cc1Nc1ncc(Br)c(Nc2ccc3nccnc3c2P(C)(C)=O)n1 [compound 94]", "log10(GI50)": 1.46}
{"compound": "COc1cc(N2CCN(CC3CC3)CC2)c(-c2cnn(C)c2)cc1Nc1ncc(Br)c(Nc2ccc3nccnc3c2P(C)(C)=O)n1 [compound 157]", "log10(GI50)": 0.85}
{"compound": "COc1cc(N2CCC(N3CCN(C)C(C)C3)CC2)c(-c2cnn(C)c2)cc1Nc1ncc(Br)c(Nc2ccc3nccnc3c2P(C)(C)=O)n1 (stereo not shown) [compound 193]", "log10(GI50)": 0.99}
{"compound": "COc1cc(N2CCN(CC3COC3)CC2)c(-c2cnn(C)c2)cc1Nc1ncc(Br)c(Nc2ccc3nccnc3c2P(C)(C)=O)n1 [compound 219]", "log10(GI50)": 0.03}
{"compound": "COc1ncc(-c2cnn(C)c2)cc1Nc1ncc(Br)c(Nc2ccc3nccnc3c2P(C)(C)=O)n1 [compound 30]", "log10(GI50)": 1.80}
{"compound": "COc1cc(N2CCOCC2)c(-c2cnn(C)c2)cc1Nc1ncc(Br)c(Nc2ccccc2NS(C)(=O)=O)n1 [Compound 80]", "log10(GI50)": 1.00}
{"compound": "COc1cc(N2CCC(N3CC(CF)C3)CC2)c(-c2cnn(C)c2)cc1Nc1ncc(Br)c(Nc2ccc3nccnc3c2P(C)(C)=O)n1 [compound 204]", "log10(GI50)": 1.05}

###

# target entity: L858R/T790M/C797S triple mutant EGFR (Homo sapiens, UniProt P00533, C797S/L858R/T790M)
# Construct: purchased Signalchem
# Sequence (P00533 25-1210 T790M/C797S/L858R): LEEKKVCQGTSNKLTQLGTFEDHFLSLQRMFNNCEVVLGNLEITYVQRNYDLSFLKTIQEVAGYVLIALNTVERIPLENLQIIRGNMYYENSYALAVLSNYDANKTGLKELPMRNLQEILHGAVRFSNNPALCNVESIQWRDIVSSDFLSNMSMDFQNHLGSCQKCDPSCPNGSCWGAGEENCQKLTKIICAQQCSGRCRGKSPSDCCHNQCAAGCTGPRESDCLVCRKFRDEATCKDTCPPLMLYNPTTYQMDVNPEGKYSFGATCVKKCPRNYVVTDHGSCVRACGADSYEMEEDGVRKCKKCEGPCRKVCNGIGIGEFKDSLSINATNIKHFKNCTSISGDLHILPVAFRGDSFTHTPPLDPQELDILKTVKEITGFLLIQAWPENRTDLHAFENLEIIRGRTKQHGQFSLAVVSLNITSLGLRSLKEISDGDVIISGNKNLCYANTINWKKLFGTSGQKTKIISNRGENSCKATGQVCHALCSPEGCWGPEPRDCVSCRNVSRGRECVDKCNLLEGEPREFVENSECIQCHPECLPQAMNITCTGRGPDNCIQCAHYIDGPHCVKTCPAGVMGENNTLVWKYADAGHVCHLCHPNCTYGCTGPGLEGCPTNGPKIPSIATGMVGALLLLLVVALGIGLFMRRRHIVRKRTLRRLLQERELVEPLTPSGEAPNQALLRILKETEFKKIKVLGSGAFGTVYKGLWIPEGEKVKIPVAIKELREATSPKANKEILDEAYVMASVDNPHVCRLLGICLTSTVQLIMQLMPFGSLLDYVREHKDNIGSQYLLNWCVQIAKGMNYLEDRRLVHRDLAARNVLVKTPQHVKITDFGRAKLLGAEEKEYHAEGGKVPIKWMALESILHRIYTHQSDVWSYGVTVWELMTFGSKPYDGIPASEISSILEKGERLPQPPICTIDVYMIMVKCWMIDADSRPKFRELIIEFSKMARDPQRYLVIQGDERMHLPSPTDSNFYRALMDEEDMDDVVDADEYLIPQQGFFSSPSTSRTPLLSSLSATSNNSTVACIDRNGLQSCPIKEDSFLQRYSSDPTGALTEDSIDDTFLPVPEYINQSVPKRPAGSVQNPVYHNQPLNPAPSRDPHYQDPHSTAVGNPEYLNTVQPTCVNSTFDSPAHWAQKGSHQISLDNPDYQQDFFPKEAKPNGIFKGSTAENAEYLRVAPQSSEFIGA
# assay explanation: Enzymology experiment in vitro (HTRF/FRET kinase activity), L858R/T790M/C797S triple mutant EGFR
# Assay type: biochemical
# conditions used: HTRF KinEASE-TK, read-out: EGFR (L858R/T790M/C797S) IC50
pIC50: −log10 of the molar value.

{"molecule": "COc1cc(N2CCN(C)C(CF)C2)c(-c2cnn(C)c2)cc1Nc1ncc(Br)c(Nc2ccc3nccnc3c2P(C)(C)=O)n1 (centres unmarked)", "target entity": "L858R/T790M/C797S triple mutant EGFR (Homo sapiens, UniProt P00533, C797S/L858R/T790M)", "pIC50": 9.66}
{"molecule": "COc1cc(N2CCC3(CC2)CN(C(C)C)CCO3)c(-c2cnn(C)c2)cc1Nc1ncc(Br)c(Nc2ccc3nccnc3c2P(C)(C)=O)n1", "target entity": "L858R/T790M/C797S triple mutant EGFR (Homo sapiens, UniProt P00533, C797S/L858R/T790M)", "pIC50": 9.23}
{"molecule": "COc1cc(N2CCOCC2)c(-c2cnn(C)c2)cc1Nc1ncc(Br)c(Nc2ccc3nccnc3c2P(C)(C)=O)n1", "target entity": "L858R/T790M/C797S triple mutant EGFR (Homo sapiens, UniProt P00533, C797S/L858R/T790M)", "pIC50": 9.92}
{"molecule": "COc1ccc(-n2cccn2)cc1Nc1ncc(Br)c(Nc2ccc3nccnc3c2P(C)(C)=O)n1", "target entity": "L858R/T790M/C797S triple mutant EGFR (Homo sapiens, UniProt P00533, C797S/L858R/T790M)", "pIC50": 8.04}
{"molecule": "COc1cc(N2CCC(N3CCN(C)CC3)CC2)c(-c2cnn(C)c2)cc1Nc1ncc(F)c(Nc2ccc3nccnc3c2P(C)(C)=O)n1", "target entity": "L858R/T790M/C797S triple mutant EGFR (Homo sapiens, UniProt P00533, C797S/L858R/T790M)", "pIC50": 8.89}
{"molecule": "[2H]C([2H])([2H])N(c1cc(OC)c(Nc2ncc(Br)c(Nc3ccc4nccnc4c3P(C)(C)=O)n2)cc1-c1cnn(C)c1)C([2H])([2H])[2H]", "target entity": "L858R/T790M/C797S triple mutant EGFR (Homo sapiens, UniProt P00533, C797S/L858R/T790M)", "pIC50": 9.51}
{"molecule": "COc1cc(N2CCC(N3CCOCC3)C(F)C2)c(-c2cnn(C)c2)cc1Nc1ncc(Br)c(Nc2ccc3nccnc3c2P(C)(C)=O)n1 (centres unmarked)", "target entity": "L858R/T790M/C797S triple mutant EGFR (Homo sapiens, UniProt P00533, C797S/L858R/T790M)", "pIC50": 9.44}
{"molecule": "CCOc1nc(N2CCOCC2)c(-c2cnn(C)c2)cc1Nc1ncc(Br)c(Nc2ccc3nccnc3c2P(C)(C)=O)n1", "target entity": "L858R/T790M/C797S triple mutant EGFR (Homo sapiens, UniProt P00533, C797S/L858R/T790M)", "pIC50": 9.27}
{"molecule": "COCCN1CCN(c2cc(OC)c(Nc3ncc(Br)c(Nc4ccc5nccnc5c4P(C)(C)=O)n3)cc2-c2cnn(C)c2)CC1", "target entity": "L858R/T790M/C797S triple mutant EGFR (Homo sapiens, UniProt P00533, C797S/L858R/T790M)", "pIC50": 10.52}
{"molecule": "COc1ccc(-c2cnoc2)cc1Nc1ncc(Br)c(Nc2ccc3nccnc3c2P(C)(C)=O)n1", "target entity": "L858R/T790M/C797S triple mutant EGFR (Homo sapiens, UniProt P00533, C797S/L858R/T790M)", "pIC50": 9.06}
{"molecule": "COCC1CCCN(c2cc(OC)c(Nc3ncc(Br)c(Nc4ccc5nccnc5c4P(C)(C)=O)n3)cc2-c2cnn(C)c2)C1 (centres unmarked)", "target entity": "L858R/T790M/C797S triple mutant EGFR (Homo sapiens, UniProt P00533, C797S/L858R/T790M)", "pIC50": 8.64}
{"molecule": "COc1cc(N2CCN(CC3COC3)CC2)c(-c2cnn(C)c2)cc1Nc1ncc(Br)c(Nc2ccc3nccnc3c2P(C)(C)=O)n1", "target entity": "L858R/T790M/C797S triple mutant EGFR (Homo sapiens, UniProt P00533, C797S/L858R/T790M)", "pIC50": 9.92}
{"molecule": "COc1cc(N2CCC3(CC2)CN(C(C)C)CC(C)(C)O3)c(-c2cnn(C)c2)cc1Nc1ncc(Br)c(Nc2ccc3nccnc3c2P(C)(C)=O)n1", "target entity": "L858R/T790M/C797S triple mutant EGFR (Homo sapiens, UniProt P00533, C797S/L858R/T790M)", "pIC50": 8.37}
{"molecule": "COc1cc(N2CCC3(CCN(CCF)CC3)CC2)c(-c2cnn(C)c2)cc1Nc1ncc(Br)c(Nc2ccc3ncccc3c2P(C)(C)=O)n1", "target entity": "L858R/T790M/C797S triple mutant EGFR (Homo sapiens, UniProt P00533, C797S/L858R/T790M)", "pIC50": 9.52}
{"molecule": "COc1cc(N2CC(C)OC(C)C2)c(-c2cnn(C)c2)cc1Nc1ncc(Br)c(Nc2cc3c(cc2P(C)(C)=O)CC3)n1 (racemic) [compound 137]", "target entity": "L858R/T790M/C797S triple mutant EGFR (Homo sapiens, UniProt P00533, C797S/L858R/T790M)", "pIC50": 8.01}
{"molecule": "COc1cc(N(C)C)c(-c2cnn(C)c2)cc1Nc1ncc(Br)c(Nc2ccc3nccnc3c2P(C)(C)=O)n1", "target entity": "L858R/T790M/C797S triple mutant EGFR (Homo sapiens, UniProt P00533, C797S/L858R/T790M)", "pIC50": 9.66}
{"molecule": "COc1cc(N2CCC(N3CCOC(C)C3)CC2)c(-c2cnn(C)c2)cc1Nc1ncc(Br)c(Nc2ccc3nccnc3c2P(C)(C)=O)n1 (racemic)", "target entity": "L858R/T790M/C797S triple mutant EGFR (Homo sapiens, UniProt P00533, C797S/L858R/T790M)", "pIC50": 9.19}
{"molecule": "COc1cc(S(C)(=O)=O)c(-c2cnn(C)c2)cc1Nc1ncc(Br)c(Nc2ccc3nccnc3c2P(C)(C)=O)n1", "target entity": "L858R/T790M/C797S triple mutant EGFR (Homo sapiens, UniProt P00533, C797S/L858R/T790M)", "pIC50": 7.66}
{"molecule": "COc1cc(N2CCC3(CC2)CO[C@@H](C)[C@@H]3N(C)C)c(-c2cnn(C)c2)cc1Nc1ncc(Br)c(Nc2ccc3nccnc3c2P(C)(C)=O)n1 (stereo in doubt)", "target entity": "L858R/T790M/C797S triple mutant EGFR (Homo sapiens, UniProt P00533, C797S/L858R/T790M)", "pIC50": 9.13}
{"molecule": "COc1cc(N2CCOC(COC(C)C)C2)c(-c2cnn(C)c2)cc1Nc1ncc(Br)c(Nc2ccc3nccnc3c2P(C)(C)=O)n1 (centres unmarked)", "target entity": "L858R/T790M/C797S triple mutant EGFR (Homo sapiens, UniProt P00533, C797S/L858R/T790M)", "pIC50": 9.40}
{"molecule": "COc1cc(N2CCOCC2)c(-c2cnn(S(=O)(=O)C3CC3)c2)cc1Nc1ncc(Br)c(Nc2ccc3nccnc3c2P(C)(C)=O)n1", "target entity": "L858R/T790M/C797S triple mutant EGFR (Homo sapiens, UniProt P00533, C797S/L858R/T790M)", "pIC50": 8.50}
{"molecule": "COc1cc(N2CCC(C)(OC)CC2)c(-c2cnn(C)c2)cc1Nc1ncc(Br)c(Nc2ccccc2P(C)(C)=O)n1", "target entity": "L858R/T790M/C797S triple mutant EGFR (Homo sapiens, UniProt P00533, C797S/L858R/T790M)", "pIC50": 9.29}
{"molecule": "COc1cc(N2CCC(N3CC(C)N(C)C(C)C3)CC2)c(-c2cnn(C)c2)cc1Nc1ncc(Br)c(Nc2ccc3nccnc3c2P(C)(C)=O)n1 (centres unmarked)", "target entity": "L858R/T790M/C797S triple mutant EGFR (Homo sapiens, UniProt P00533, C797S/L858R/T790M)", "pIC50": 9.60}
{"molecule": "COc1cc(N2CCOCC2)c(-c2cnn(C)c2)cc1Nc1ncc(Br)c(Nc2cc3c(cc2P(C)(C)=O)CC3)n1", "target entity": "L858R/T790M/C797S triple mutant EGFR (Homo sapiens, UniProt P00533, C797S/L858R/T790M)", "pIC50": 9.35}
{"molecule": "COc1cc(N2CCC3C(C2)CN3C)c(-c2cnn(C)c2)cc1Nc1ncc(Br)c(Nc2ccc3nccnc3c2P(C)(C)=O)n1 (racemic)", "target entity": "L858R/T790M/C797S triple mutant EGFR (Homo sapiens, UniProt P00533, C797S/L858R/T790M)", "pIC50": 10.05}
{"molecule": "Cn1cc(-c2cc3c(c(Nc4ncc(Br)c(Nc5ccc6nccnc6c5P(C)(C)=O)n4)c2)OCC3)cn1", "target entity": "L858R/T790M/C797S triple mutant EGFR (Homo sapiens, UniProt P00533, C797S/L858R/T790M)", "pIC50": 10.22}
